Tested on: MPTP monkeys
Test: post-synaptic dopaminergic activity in MPTP monkeys
Format: in vivo, rhesus monkey
Settings: Primates, in Macaca mulatta, im; rhesus monkeys, i.m.; read-out: minimum dose (MED) required to alleviate the Parkinson's symptoms
observable: minimal effective dose (mg/kg)
Give the number; mg/kg is assumed, so skip it.

Using MPTP monkeys as the test system, report measured minimal effective dose of N#Cc1ccc(C=CCN2CCc3nc(N)sc3CC2)cc1 [Example 14b] . 0.05

Using MPTP monkeys as the test system, report measured minimal effective dose of COc1ccc(OC)c(C=CCN2CCc3nc(N)sc3CC2)c1 . 0.05

Using MPTP monkeys as the test system, report measured minimal effective dose of Cc1cccnc1C=CCN1CCc2nc(N)sc2CC1 [Example 11i] . 0.05

Using MPTP monkeys as the test system, report measured minimal effective dose of Nc1nc2c(s1)CCN(CC=Cc1ccccn1)CC2 [Example 11a] . 0.05

Using MPTP monkeys as the test system, report measured minimal effective dose of C=CCN1CCc2nc(N)sc2CC1 [Compound A, reference compound] . 0.03

###

Biological target: serotonin-1A(5-HT1A) receptors (Rattus norvegicus, UniProt P19327)
Construct: The frontal cortex was dissected out; from tissue; host or cells: rat frontal cortex homogenate (Chbb:Thom strain)
Sequence (P19327 whole entry): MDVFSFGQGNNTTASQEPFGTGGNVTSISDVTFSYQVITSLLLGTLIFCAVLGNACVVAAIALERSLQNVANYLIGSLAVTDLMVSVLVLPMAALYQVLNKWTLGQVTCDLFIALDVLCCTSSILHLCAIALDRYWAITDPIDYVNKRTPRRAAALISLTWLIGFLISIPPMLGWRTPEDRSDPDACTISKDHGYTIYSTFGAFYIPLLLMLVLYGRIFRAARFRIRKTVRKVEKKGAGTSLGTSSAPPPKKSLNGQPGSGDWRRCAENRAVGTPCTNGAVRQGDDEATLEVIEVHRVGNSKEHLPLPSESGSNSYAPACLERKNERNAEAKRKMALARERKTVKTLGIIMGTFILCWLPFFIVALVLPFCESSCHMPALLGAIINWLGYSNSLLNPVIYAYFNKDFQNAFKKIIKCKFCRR
Assay: affinity for serotonin-1A (5-HT1A) receptors by displacement experiments with [3H]-8-OH-DPAT (rat frontal cortex)
Format: binding
Conditions: [3H]-8-OH-DPAT; rat frontal cortex; read-out: 5-HT1A-Ki
observable: Ki (µM)
Give the number; µM is assumed, so skip it.

For the compound Nc1nc2c(s1)CCN(CC=Cc1cccc(OCc3ccccc3)c1)CC2 [Example 4y] , give its reported Ki. 23

For the compound Nc1nc2c(s1)CCN(C/C=C\c1ccccc1)CC2 [Example 12b] , give its reported Ki. 53

For the compound Nc1nc2c(s1)CCN(CC=Cc1nccc3ccccc13)CC2 [Example 7a] , give its reported Ki. 1.1

For the compound N#Cc1ccc(C=CCN2CCc3nc(N)sc3CC2)cc1 [Example 14b] , give its reported Ki. 7.8

For the compound Nc1nc2c(s1)CCN(CC=Cc1cc3ccccc3cn1)CC2 [Example 24a] , give its reported Ki. 3.5

For the compound Nc1nc2c(s1)CCN(CC#Cc1ccccc1)CC2 [Example 4d] , give its reported Ki. 14.2

For the compound Nc1nc2c(s1)CCN(CC=Cc1ccc(-c3ccccc3)cc1)CC2 [Example 4w] , give its reported Ki. 36.3

For the compound Nc1nc2c(s1)CCN(CC1CC1c1ccccc1)CC2 (stereo not shown) [Example 17] , give its reported Ki. 1.06

For the compound Nc1nc2c(s1)CCN(CC=Cc1ccc3ccccc3c1)CC2 [Example 4u] , give its reported Ki. 14

For the compound Nc1nc2c(s1)CCN(CC=Cc1ccccc1N1CCCCC1)CC2 [Example 11p] , give its reported Ki. 1.77

###

Target: serotonin-1A(5-HT1A) receptors (Rattus norvegicus, UniProt P19327)
Construct: The frontal cortex was dissected out; from tissue; host or cells: rat frontal cortex homogenate (Chbb:Thom strain)
Test: affinity for serotonin-1A (5-HT1A) receptors by displacement experiments with [3H]-8-OH-DPAT (rat frontal cortex)
Type: binding
Details: [3H]-8-OH-DPAT; rat frontal cortex; read-out: 5-HT1A-Ki
observable: Ki (µM)
Give the number; µM is assumed, so skip it.

For the molecule C=CCN1CCc2nc(N)sc2CC1 [Compound A, reference compound] , give its reported Ki. 4.69

For the molecule Nc1nc2c(s1)CCN(CC=Cc1ccccc1)CC2 , give its reported Ki. 4.34

For the molecule Nc1nc2c(s1)CCN(CC=Cc1cccc3ccccc13)CC2 , give its reported Ki. 0.35
